The values you see were collected from patent US9174995B2.

pIC50: recorded values
# ASSAYED TARGET: His-tagged Parp-1 (Homo sapiens)
# Sequence (P09874 whole entry): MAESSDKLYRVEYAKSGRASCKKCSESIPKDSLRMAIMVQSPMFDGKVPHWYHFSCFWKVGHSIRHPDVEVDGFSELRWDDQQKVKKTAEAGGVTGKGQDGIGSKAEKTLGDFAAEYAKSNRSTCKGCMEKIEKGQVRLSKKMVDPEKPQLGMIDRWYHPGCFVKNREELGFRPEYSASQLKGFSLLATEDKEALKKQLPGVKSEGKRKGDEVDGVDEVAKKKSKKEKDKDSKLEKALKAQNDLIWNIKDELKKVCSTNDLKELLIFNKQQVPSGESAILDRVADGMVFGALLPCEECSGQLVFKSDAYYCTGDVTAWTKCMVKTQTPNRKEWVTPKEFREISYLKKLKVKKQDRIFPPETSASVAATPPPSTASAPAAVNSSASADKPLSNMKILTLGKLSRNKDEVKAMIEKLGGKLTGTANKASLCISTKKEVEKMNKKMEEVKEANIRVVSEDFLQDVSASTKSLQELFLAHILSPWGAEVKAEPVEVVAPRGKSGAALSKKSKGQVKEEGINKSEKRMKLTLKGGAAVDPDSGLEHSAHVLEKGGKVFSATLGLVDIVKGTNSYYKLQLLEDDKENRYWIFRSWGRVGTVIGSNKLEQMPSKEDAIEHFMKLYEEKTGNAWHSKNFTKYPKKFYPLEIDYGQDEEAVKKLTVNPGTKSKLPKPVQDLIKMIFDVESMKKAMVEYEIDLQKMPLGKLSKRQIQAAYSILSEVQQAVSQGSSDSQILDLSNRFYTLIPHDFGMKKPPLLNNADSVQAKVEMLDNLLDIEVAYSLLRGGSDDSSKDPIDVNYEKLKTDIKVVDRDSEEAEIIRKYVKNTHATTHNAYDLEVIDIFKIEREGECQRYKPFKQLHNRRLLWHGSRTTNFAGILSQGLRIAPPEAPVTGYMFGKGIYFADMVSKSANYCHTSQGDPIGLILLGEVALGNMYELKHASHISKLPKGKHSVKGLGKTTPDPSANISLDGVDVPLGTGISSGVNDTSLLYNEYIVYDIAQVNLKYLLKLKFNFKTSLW
pIC50: −log10 of the molar value.
MEASUREMENT KIND: pIC50

INSERT INTO results (mol, assayed_target, measurement_kind, val) VALUES
  ('Cn1cc(-c2ccc(-c3nn4cccc4c(=O)[nH]3)cc2)cn1', 'His-tagged Parp-1 (Homo sapiens)', 'pIC50', '4.30 to 5.52'),
  ('Cc1cc2c(=O)[nH]c(-c3ccc(-c4cnn(C)c4)cc3)nn2c1', 'His-tagged Parp-1 (Homo sapiens)', 'pIC50', '4.30 to 5.52'),
  ('CC(C)(O)c1ccc(-c2nn3cc(Cl)cc3c(=O)[nH]2)cc1', 'His-tagged Parp-1 (Homo sapiens)', 'pIC50', '4.30 to 5.52'),
  ('CC(C)(OCCO)c1ccc(-c2nn3cccc3c(=O)[nH]2)cc1', 'His-tagged Parp-1 (Homo sapiens)', 'pIC50', '4.30 to 5.52'),
  ('Cc1cc2c(=O)[nH]c(-c3ccc(C(C)(C)O)cc3)nn2c1', 'His-tagged Parp-1 (Homo sapiens)', 'pIC50', '5.52 to 6.52');
